Target: LecBPAO1 (Pseudomonas aeruginosa, UniProt Q9HYN5)
Construct: made in house
Sequence (Q9HYN5 entry or part of it): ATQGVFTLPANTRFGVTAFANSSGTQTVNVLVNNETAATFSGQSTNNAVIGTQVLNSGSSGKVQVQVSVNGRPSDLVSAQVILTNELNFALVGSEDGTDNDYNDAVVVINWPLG
Experiment: Microcalorimetric assay (ITC) for direct binding
Settings: ITC, 25° C., LecBPAO1
metric: ΔG (kcal/mol)
Please give a number only; it is taken to be in kcal/mol.

Ask | GET /values?readout=ΔG&item= CC1O[C@H](CNC(=O)/C=C/c2ccccc2)C(O)C(O)[C@@H]1O (some centres unmarked) [drawing 118]
Reply | -7.53

Ask | GET /values?readout=ΔG&item= CCCC[C@@]1(O)C(C)OCC(O)C1O (some centres unmarked) [drawing 117]
Reply | -8.75

Ask | GET /values?readout=ΔG&item= CC1OCC(O)C(O)[C@@H]1O (stereo partly drawn) [drawing 115, 1-deoxy-L-fucose, reference compound]
Reply | -8.34

Ask | GET /values?readout=ΔG&item= CC[C@@]1(O)C(C)OCC(O)C1O (some centres unmarked) [drawing 116]
Reply | -9.13

Ask | GET /values?readout=ΔG&item= Cc1cc(C)c(S(=O)(=O)NC[C@H]2OC(C)[C@@H](O)C(O)C2O)c(C)c1 (some centres unmarked) [drawing 119]
Reply | -8.03

* * *

Target: LecBPAO1 (Pseudomonas aeruginosa)
Construct: made in house
Experiment: biochemical
Format: binding
metric: pIC50
By convention, pIC50 is the negative base-10 log of a molar concentration.

Ask | Please state recorded pIC50 (tested on LecBPAO1 (Pseudomonas aeruginosa)) of CC1O[C@H](CNS(=O)(=O)c2ccsc2)C(O)C(O)[C@@H]1O (some centres unmarked)
Reply | 5.73

Ask | Please state recorded pIC50 (tested on LecBPAO1 (Pseudomonas aeruginosa)) of CC1O[C@H](CNC(=O)c2cc3ccccc3o2)C(O)C(O)[C@@H]1O (some centres unmarked)
Reply | 4.99

Ask | Please state recorded pIC50 (tested on LecBPAO1 (Pseudomonas aeruginosa)) of CC1OCC(O)C(O)[C@@]1(O)CCNS(C)(=O)=O (some centres unmarked)
Reply | 6.36

Ask | Please state recorded pIC50 (tested on LecBPAO1 (Pseudomonas aeruginosa)) of CC1OCC(O)C(O)[C@@]1(O)C1CCCCC1 (stereo partly drawn) [1-deoxy-4(S)—C-(cyclohexyl) L-fucose]
Reply | 5.59

Ask | Please state recorded pIC50 (tested on LecBPAO1 (Pseudomonas aeruginosa)) of Cc1cc(C)c(S(=O)(=O)NC[C@H]2OC(C)[C@@H](O)C(O)C2O)c(C)c1 (some centres unmarked) [drawing 93]
Reply | 6.01

Ask | Please state recorded pIC50 (tested on LecBPAO1 (Pseudomonas aeruginosa)) of CC(C)CC[C@@]1(O)C(C)OCC(O)C1O (stereo partly drawn) [1-deoxy-4(S)—C-(isopentyl) L-fucose]
Reply | 6.11

Ask | Please state recorded pIC50 (tested on LecBPAO1 (Pseudomonas aeruginosa)) of CC(C)C(=O)NCC1(O)C(O)COC(C)[C@H]1O (some centres unmarked)
Reply | 3.46

Ask | Please state recorded pIC50 (tested on LecBPAO1 (Pseudomonas aeruginosa)) of Cc1ccc(S(=O)(=O)NC[C@H]2OC(C)[C@@H](O)C(O)C2O)s1 (some centres unmarked)
Reply | 5.46

Ask | Please state recorded pIC50 (tested on LecBPAO1 (Pseudomonas aeruginosa)) of CC1OCC(O)C(O)[C@@H]1O (stereo partly drawn) [drawing 74, 1-deoxy-L-fucose, reference compound]
Reply | 5.81

Ask | Please state recorded pIC50 (tested on LecBPAO1 (Pseudomonas aeruginosa)) of CC1OCC(O)C(O)[C@@]1(O)Cc1ccccc1 (stereo partly drawn) [1-deoxy-4(S)—C-(benzyl) L-fucose]
Reply | 5.58

Ask | Please state recorded pIC50 (tested on LecBPAO1 (Pseudomonas aeruginosa)) of CCC[C@@]1(O)C(C)OCC(O)C1O (stereo partly drawn) [1-deoxy-4(S)—C-(propyl) L-fucose]
Reply | 6.18

Ask | Please state recorded pIC50 (tested on LecBPAO1 (Pseudomonas aeruginosa)) of CC1O[C@H](CNS(=O)(=O)c2cn(C)cn2)C(O)C(O)[C@@H]1O (some centres unmarked)
Reply | 4.85

Ask | Please state recorded pIC50 (tested on LecBPAO1 (Pseudomonas aeruginosa)) of CC(=O)NCC[C@@]1(O)C(C)OCC(O)C1O (stereo partly drawn) [1-deoxy-4(R)—C-(ethylacetamide) L-fucose]
Reply | 6.28

Ask | Please state recorded pIC50 (tested on LecBPAO1 (Pseudomonas aeruginosa)) of CCc1ccc(S(=O)(=O)NC[C@H]2OC(C)[C@@H](O)C(O)C2O)s1 (some centres unmarked)
Reply | 5.37

Ask | Please state recorded pIC50 (tested on LecBPAO1 (Pseudomonas aeruginosa)) of CCCC[C@@]1(O)C(C)OCC(O)C1O (stereo partly drawn) [drawing 84, 1-deoxy-4(S)—C-(butyl) L-fucose]
Reply | 6.19

Ask | Please state recorded pIC50 (tested on LecBPAO1 (Pseudomonas aeruginosa)) of CC1OCC(O)C(O)[C@@]1(O)CC#N (stereo partly drawn) [1-deoxy-4(S)—C-(cyanomethyl) L-fucose]
Reply | 5.77

Ask | Please state recorded pIC50 (tested on LecBPAO1 (Pseudomonas aeruginosa)) of CC1OCC(O)C(C)(O)[C@@H]1O (stereo partly drawn) [1-deoxy-3(S)—C-(methyl)-L-fucose]
Reply | 4.30

Ask | Please state recorded pIC50 (tested on LecBPAO1 (Pseudomonas aeruginosa)) of Cc1cc(S(=O)(=O)NC[C@H]2OC(C)[C@@H](O)C(O)C2O)c(C(F)(F)F)o1 (some centres unmarked)
Reply | 5.41

Ask | Please state recorded pIC50 (tested on LecBPAO1 (Pseudomonas aeruginosa)) of CC1OCC(O)C(O)[C@@]1(O)c1ccccc1 (stereo partly drawn) [1-deoxy-4(S)—C-(phenyl) L-fucose]
Reply | 5.30

Ask | Please state recorded pIC50 (tested on LecBPAO1 (Pseudomonas aeruginosa)) of Cc1csc(S(=O)(=O)NC[C@H]2OC(C)[C@@H](O)C(O)C2O)c1 (some centres unmarked)
Reply | 5.60

Ask | Please state recorded pIC50 (tested on LecBPAO1 (Pseudomonas aeruginosa)) of CC1O[C@H](CNC(=O)/C=C/c2ccccc2)C(O)C(O)[C@@H]1O (some centres unmarked) [drawing 111]
Reply | 5.38

Ask | Please state recorded pIC50 (tested on LecBPAO1 (Pseudomonas aeruginosa)) of CC1O[C@H](CNS(=O)(=O)c2ccn(C)n2)C(O)C(O)[C@@H]1O (some centres unmarked)
Reply | 5.17

Ask | Please state recorded pIC50 (tested on LecBPAO1 (Pseudomonas aeruginosa)) of CC1O[C@H](CNC(=O)c2ccccc2)C(O)C(O)[C@@H]1O (some centres unmarked)
Reply | 5.06

Ask | Please state recorded pIC50 (tested on LecBPAO1 (Pseudomonas aeruginosa)) of CC1OCC(O)C(O)[C@]1(C)O (stereo partly drawn) [1-deoxy-4(S)—C-(methyl) L-fucose]
Reply | 6.34

Ask | Please state recorded pIC50 (tested on LecBPAO1 (Pseudomonas aeruginosa)) of CC1O[C@H](CNS(=O)(=O)c2ccco2)C(O)C(O)[C@@H]1O (some centres unmarked)
Reply | 5.46

Ask | Please state recorded pIC50 (tested on LecBPAO1 (Pseudomonas aeruginosa)) of CCCCCC[C@@]1(O)C(C)OCC(O)C1O (stereo partly drawn) [1-deoxy-4(S)—C-(hexyl) L-fucose]
Reply | 6.21

Ask | Please state recorded pIC50 (tested on LecBPAO1 (Pseudomonas aeruginosa)) of CC[C@@]1(O)C(C)OCC(O)C1O (stereo partly drawn) [drawing 82, 1-deoxy-4(S)—C-(ethyl) L-fucose]
Reply | 6.41

Ask | Please state recorded pIC50 (tested on LecBPAO1 (Pseudomonas aeruginosa)) of CCC1(O)C(O)COC(C)[C@H]1O (stereo partly drawn) [1-deoxy-3(S)—C-(ethyl)-L-fucose]
Reply | 3.33

Ask | Please state recorded pIC50 (tested on LecBPAO1 (Pseudomonas aeruginosa)) of CC1O[C@H](CNS(=O)(=O)c2ccc(Br)s2)C(O)C(O)[C@@H]1O (some centres unmarked)
Reply | 5.49

* * *

Target: LecBPA14 (Pseudomonas aeruginosa)
Sequence (A0A0H2ZE85 entry or part of it): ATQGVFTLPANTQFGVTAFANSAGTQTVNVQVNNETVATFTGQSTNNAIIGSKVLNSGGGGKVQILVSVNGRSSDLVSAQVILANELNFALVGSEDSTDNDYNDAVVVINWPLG
Assay: biochemical
Mark true only when IC50 stays strictly below 600 nM. Values equal to the cut-off are false.

Ask | Record CC1O[C@H](CNS(=O)(=O)c2ccco2)C(O)C(O)[C@@H]1O (stereo partly drawn) : is its IC50 strictly below 600 nM?
Reply | true

Ask | Record CC1OCC(O)C(C)(O)[C@@H]1O (stereo partly drawn) [1-deoxy-3(S)—C-(methyl)-L-fucose] : is its IC50 strictly below 600 nM?
Reply | false

Ask | Record Cc1cc(S(=O)(=O)NC[C@H]2OC(C)[C@@H](O)C(O)C2O)c(C(F)(F)F)o1 (stereo partly drawn) : is its IC50 strictly below 600 nM?
Reply | true

Ask | Record CC1OCC(O)C(O)[C@@]1(O)Cc1ccccc1 (stereo partly drawn) [1-deoxy-4(S)—C-(benzyl) L-fucose] : is its IC50 strictly below 600 nM?
Reply | false

Ask | Record CC[C@@]1(O)C(C)OCC(O)C1O (stereo partly drawn) [drawing 82, 1-deoxy-4(S)—C-(ethyl) L-fucose] : is its IC50 strictly below 600 nM?
Reply | true

Ask | Record CC1O[C@H](CNS(=O)(=O)c2cn(C)cn2)C(O)C(O)[C@@H]1O (stereo partly drawn) : is its IC50 strictly below 600 nM?
Reply | false

Ask | Record CCc1ccc(S(=O)(=O)NC[C@H]2OC(C)[C@@H](O)C(O)C2O)s1 (stereo partly drawn) : is its IC50 strictly below 600 nM?
Reply | true

Ask | Record CC1OCC(O)C(O)(CNS(=O)(=O)C(C)C)[C@@H]1O (stereo partly drawn) : is its IC50 strictly below 600 nM?
Reply | false
